target: Serine/threonine-protein kinase pim-2 (Homo sapiens) (UniProt Q9P1W9); settings: at 0.1 µM;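 note: reported value is the mean percent inhibition of PIM2, measured in the GSK PKIS kinase inhibitor set screen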
Sequence (Q9P1W9 whole entry, looked up): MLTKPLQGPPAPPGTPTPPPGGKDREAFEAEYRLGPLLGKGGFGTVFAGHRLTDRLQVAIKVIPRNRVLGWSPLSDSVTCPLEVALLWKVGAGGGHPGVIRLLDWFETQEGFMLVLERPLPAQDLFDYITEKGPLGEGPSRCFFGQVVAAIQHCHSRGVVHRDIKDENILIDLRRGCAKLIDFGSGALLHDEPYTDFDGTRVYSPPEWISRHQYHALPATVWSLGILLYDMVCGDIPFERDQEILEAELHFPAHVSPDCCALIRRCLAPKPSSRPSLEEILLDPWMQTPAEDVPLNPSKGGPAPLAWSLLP
parameter-measured: inhibition (%)
Expressed in %, but write only the number.

-- ask What inhibition value was documented for this molecule, `COC(=O)Nc1nc2cc(Oc3cccc(NC(=O)Nc4cc(C(F)(F)F)ccc4F)c3)ccc2[nH]1` ?
-- reply -0.3

-- ask I'd like to know its inhibition. The molecule in question is `Cc1nnc(-c2ccc(C)c(-c3ccc(C(=O)Nc4cccc(C#N)c4)cc3)c2)o1`
-- reply 0.29

-- ask Which inhibition is reported for this molecule? `COc1ccccc1Nc1ncc(-c2ccccc2)o1`
-- reply 0.78

-- ask Please look up its inhibition: `Cc1cccc(-c2n[nH]cc2-c2ccc3ncccc3n2)n1`
-- reply 0.22

-- ask Given `COc1cccc(-n2ncc3c(N/N=C/c4cccc(F)c4)ncnc32)c1` , state its recorded inhibition.
-- reply -3.26

-- ask // lookup inhibition for `CC(=O)Nc1cccc(C#Cc2cncnc2Nc2ccc(OCc3cccc(F)c3)c(Cl)c2)n1`
-- reply 0.58

* * *

molecular target: Tyrosine-protein kinase JAK2 (Homo sapiens) (UniProt O60674); conditions: at 1 µM;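 note: mean JAK2 inhibition from the GSK PKIS screen, compounds tested at 1 µM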
Sequence (O60674 whole entry): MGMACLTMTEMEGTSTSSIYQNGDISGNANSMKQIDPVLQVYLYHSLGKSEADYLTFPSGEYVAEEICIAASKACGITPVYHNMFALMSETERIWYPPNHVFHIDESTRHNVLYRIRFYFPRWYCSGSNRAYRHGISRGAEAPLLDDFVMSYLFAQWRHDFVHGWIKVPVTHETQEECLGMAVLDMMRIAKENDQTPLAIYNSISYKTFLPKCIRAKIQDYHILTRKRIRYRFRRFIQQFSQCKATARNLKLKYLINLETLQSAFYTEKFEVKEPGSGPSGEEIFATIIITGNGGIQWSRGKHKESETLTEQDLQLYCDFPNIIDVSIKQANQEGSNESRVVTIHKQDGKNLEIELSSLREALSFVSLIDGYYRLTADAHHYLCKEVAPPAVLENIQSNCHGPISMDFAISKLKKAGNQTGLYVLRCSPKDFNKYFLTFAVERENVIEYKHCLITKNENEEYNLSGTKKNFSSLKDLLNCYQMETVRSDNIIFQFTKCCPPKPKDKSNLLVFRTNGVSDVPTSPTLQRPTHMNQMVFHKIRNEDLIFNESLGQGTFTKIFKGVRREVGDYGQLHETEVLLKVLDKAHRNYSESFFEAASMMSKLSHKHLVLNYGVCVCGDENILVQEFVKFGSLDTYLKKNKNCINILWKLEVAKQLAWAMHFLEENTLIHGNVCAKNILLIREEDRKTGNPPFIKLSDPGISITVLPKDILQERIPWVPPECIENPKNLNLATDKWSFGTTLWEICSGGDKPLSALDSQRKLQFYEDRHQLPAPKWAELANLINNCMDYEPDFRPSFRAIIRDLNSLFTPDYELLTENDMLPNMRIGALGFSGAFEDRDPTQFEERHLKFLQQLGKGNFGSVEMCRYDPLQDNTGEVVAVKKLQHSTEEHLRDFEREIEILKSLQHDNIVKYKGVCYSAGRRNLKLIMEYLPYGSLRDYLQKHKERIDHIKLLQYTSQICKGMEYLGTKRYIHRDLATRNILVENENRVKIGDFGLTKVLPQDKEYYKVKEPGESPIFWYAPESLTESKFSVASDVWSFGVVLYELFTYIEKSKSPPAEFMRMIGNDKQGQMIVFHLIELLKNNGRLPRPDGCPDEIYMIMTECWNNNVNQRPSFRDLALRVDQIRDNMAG
Overview of recorded inhibition for various compounds
Just so you know, I need the unit written after the number.

* CCn1c(-c2nonc2N)nc2cncc(C(=O)N3CCNCC3)c21 | 2.86%
* Cc1ccc(NC(=O)c2ccnc(N3CCCC3)c2)cc1-c1ccc(C(=O)NCC2CC2)cc1 | 2.33%
* CC(=O)Nc1cccc(C#Cc2cncnc2Nc2ccc(OCc3cccc(F)c3)c(Cl)c2)n1 | -0.27%
* Cn1cc(C=C2C(=O)Nc3cccnc32)c2ccccc21 | 2.77%

Moving on to another compound below.
-- ask Record request: inhibition value, item `CS(=O)(=O)Nc1ccc(N/C=C2\C(=O)Nc3ccccc32)cc1`
-- reply 1.03%

* * *

target: BDNF/NT-3 growth factors receptor (Homo sapiens) (UniProt Q16620); conditions: at 1 µM;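 note: values are the mean percent inhibition of TRKB kinase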
Sequence (Q16620 32-822 limits assumed): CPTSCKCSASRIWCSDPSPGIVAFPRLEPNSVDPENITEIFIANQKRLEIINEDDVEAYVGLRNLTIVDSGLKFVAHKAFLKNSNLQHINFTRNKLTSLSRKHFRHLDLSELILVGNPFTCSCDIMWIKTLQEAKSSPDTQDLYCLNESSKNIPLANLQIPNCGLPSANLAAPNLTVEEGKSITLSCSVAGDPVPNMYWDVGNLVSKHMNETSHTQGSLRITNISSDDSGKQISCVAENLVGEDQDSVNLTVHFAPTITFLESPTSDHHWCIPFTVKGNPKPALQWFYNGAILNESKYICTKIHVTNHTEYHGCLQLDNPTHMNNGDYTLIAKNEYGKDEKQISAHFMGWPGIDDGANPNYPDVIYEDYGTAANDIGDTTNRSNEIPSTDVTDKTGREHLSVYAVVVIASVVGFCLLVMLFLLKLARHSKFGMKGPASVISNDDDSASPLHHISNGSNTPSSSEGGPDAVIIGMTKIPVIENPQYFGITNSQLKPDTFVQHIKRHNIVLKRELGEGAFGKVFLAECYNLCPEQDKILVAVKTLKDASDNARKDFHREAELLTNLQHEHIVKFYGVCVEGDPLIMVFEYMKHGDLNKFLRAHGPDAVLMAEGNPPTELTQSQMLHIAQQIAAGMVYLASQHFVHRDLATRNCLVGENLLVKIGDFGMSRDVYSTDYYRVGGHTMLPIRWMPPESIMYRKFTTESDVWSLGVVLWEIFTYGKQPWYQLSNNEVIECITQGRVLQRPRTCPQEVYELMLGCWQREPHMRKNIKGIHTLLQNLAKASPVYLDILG
Everything with inhibition lower than 4% is no (0); everything else, including exactly 4%, is yes (1).

Example entries begin here.
* Cc1nnc(-c2ccc(C)c(-c3ccc(C(=O)Nc4cccc(C#N)c4)cc3)c2)o1 | no (0)
* Fc1cccc(COc2ccc(Nc3ncnc4sc(-c5cccs5)cc34)cc2Cl)c1 | no (0)
* CCn1c(-c2nonc2N)nc2cncc(C(=O)N3CC[C@H](N)C3)c21 | no (0)
* CS(=O)(=O)Nc1ccc(N/C=C2\C(=O)Nc3ccccc32)cc1 | yes (1)

Then there is this molecule:
-- ask Is inhibition for `Cc1cc(O)cc(C)c1/C=C/c1cncc(-c2nn[nH]n2)c1` at or above 4%?
-- reply no (0)

* * *

Measured inhibition values are reported for all entries that follow.
target: Casein kinase I isoform gamma-2 (Homo sapiens); details: at 1 µM
Description: GSK_PKIS: CK1-g2 mean inhibition at 1 uM [Nanosyn]
Please reply with the bare figure in % and do not write the unit itself.

# example entries with known answers
• Cc1cccc(-c2n[nH]cc2-c2ccc3ncccc3n2)n1 = 0.49
• Cc1ccc(NC(=O)c2ccnc(N3CCCC3)c2)cc1-c1ccc(C(=O)NCC2CC2)cc1 = 2.39
• CCn1c(-c2nonc2N)nc2ccncc21 = 0.81

We now examine a further compound.
-- ask If you can, please state the reported inhibition value of `Nc1ncnc2occ(-c3ccc(NC(=O)Nc4cc(C(F)(F)F)cc(C(F)(F)F)c4)cc3)c12` .
-- reply 1.8
